Molecular target: Glutamate NMDA receptor
Experiment: Compound was tested for inhibition of [3H]DCKA binding to NMDA receptor of rat brain membranes
Assay type: cell membranes, Membrane
value-type: pIC50
Numbers only, as −log10 of the molar value.

Form field: reported pIC50 of O=[N+]([O-])c1c(O)nc2cc(Cl)ccc2c1O
5.82

====

Hi there, I'd appreciate the recorded pIC50 for every entry that follows.
Molecular target: Glutamate NMDA receptor
Assay: Inhibition of [3H]DCKA binding to NMDA receptor of rat brain membranes.
Format: cell membranes, Membrane
Give bare numbers, as −log10 of the molar value.

Form field: reported pIC50 of Oc1nc2ccccc2nc1O
5.01

Form field: reported pIC50 of Oc1nc2cc(Cl)c(Cl)cc2nc1O [2,3-DIHYDROXY-6,7-DICHLOROQUINOXALINE]
6.89

Please find the next molecule below.
Form field: reported pIC50 of Oc1nc2cc(Cl)cc(Cl)c2nc1O
6.55
